Experiment: Acute toxicity
Settings: mouse, in vivo, po; 400 mg/kg p.o., male dd mice, deaths up to 72 hours
Measurement kind: mortality at 72 h (%)

# Molecule, Endpoint value
records = [
    ("CCCCC1C(=O)N(c2ccccc2)N(c2ccccc2)C1=O [Phenylbutazone, reference compound]", 30),
]

----------
Assay: Acute toxicity
Settings: mouse, in vivo, po; 300 mg/kg p.o., male dd mice, deaths up to 72 hours
Measurement kind: mortality at 72 h (%)

# Compound, Endpoint value
data = [
    ("CC(C(=O)O)c1ccc2c(c1)C(=O)C(C)(C)O2 (stereo not shown)", 0),
]
